# measurement_protocol: chemical genetic growth profiling, strain panel (AID 1159580);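 note: tested at 20 µM; growth read once vehicle control cultures reached saturation at 30 °C; lower values mean less growth of the strain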
# condition_parameters: S. cerevisiae deletion strains, growth OD, locus YNL183C, strain NPR1
Out of some 5,500 compounds screened, about 2,000 (36%) were called active. Not shown: some 18% with an inconclusive outcome. Cut-off read from the data, not from the text of the source: active = normalized growth mostly below about 0.91 (no sharp cut-off); inconclusive = no clear call, values can overlap the other calls; inactive = mostly above about 0.92. This is one part of the list.
A correct response names exactly one class from active, inactive

COc1cc(C(=O)NCCCCCC(=O)O)cc(OC)c1OC :: inactive

Test call, this compound: CC(C)=CCCC1(C)C=Cc2c(O)c3c(c(CC=C(C)C)c2O1)OC12C(CC4CC1C(C)(C)OC2(C/C=C(/C)C(=O)O)C4O)C3=O (configuration not stated)
inactive

Please let me know the test result on file for O=C(N/N=C\c1cc(Br)ccc1O)c1ccccc1Oc1ccccc1 .
inactive

Test call, this compound: COc1c(-c2coc3cc4c(cc3c2=O)CC(OC(C)=O)C(C)(C)O4)ccc2c1C=CC(C)(C)O2 (configuration not stated)
inactive
